The following compounds are shown together with reported mortality at 15.7 ppm values.
- Test system: Cabbage armyworm (Leucania separate Walker)
- PROTOCOL_NOTES: Test 2 Insecticidal Activity against Cabbage armyworm
- Type: in vivo
- EXPERIMENTAL_SETUP: 24 h

COMPOUND: CCOP(=S)(OCC)Oc1nc2scc(C)n2n1 [Comparison compound, reference compound]
TARGET_SYSTEM: Cabbage armyworm (Leucania separate Walker)
UNITS_OF_MEASURE: %
mortality at 15.7 ppm: 30

COMPOUND: CCc1c(Br)sc2nc(OP(=S)(OC(C)C)OC(C)C)nn12
TARGET_SYSTEM: Cabbage armyworm (Leucania separate Walker)
UNITS_OF_MEASURE: %
mortality at 15.7 ppm: 60

COMPOUND: CCOP(=S)(OCC)Oc1nc2sc(Br)c(CC)n2n1
TARGET_SYSTEM: Cabbage armyworm (Leucania separate Walker)
UNITS_OF_MEASURE: %
mortality at 15.7 ppm: 90

COMPOUND: CCc1c(Br)sc2nc(OP(=S)(OC)OC)nn12
TARGET_SYSTEM: Cabbage armyworm (Leucania separate Walker)
UNITS_OF_MEASURE: %
mortality at 15.7 ppm: 60
